Biological target: CIII2CIV2 supercomplex, subunit QcrB (QP site) (Mycolicibacterium smegmatis, UniProt I7FGS8+I7GD61)
Construct: purified CIII2CIV2 supercomplex with 3×FLAG tag at the C terminus of QcrB; with QcrA (Rieske subunit) within CIII2CIV2
Assay: oxygen consumption (DMWH2:O2 oxidoreductase) inhibition of purified enzyme
Type: biochemical
Value type: pIC50
Answers are plain numbers, as −log10 of the molar value.

## Input If you can, please state the reported pIC50 value of CCc1nc2ccc(Cl)cn2c1C(=O)NCc1ccc(N2CCC(c3ccc(OC(F)(F)F)cc3)CC2)cc1 [telacebec] .
## Output 7.28
